# System: SRC;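 also: KINOMEscan kinase panel screen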
# Condition Details: concentration: 1 μM, replicates: in singlicate; n = 1
Measured %Inh values are reported for all entries that follow.

Examples with their reported %Inh follow.
// query Would you mind telling me what %Inh value was observed for CCCc1ccc(S(=O)(=O)NC2CCN(c3ccnc(Nc4ccc(OC)cc4)n3)C2)cc1 (stereo not drawn) [GSK1379737] ?
// result 0%

// query // repeat for `OCCOCCn1ccc2ncnc(Nc3ccc(Oc4cccc(Cl)c4)c(Cl)c3)c21` and report
// result 0%

// query // repeat for NC(=O)c1sc(-n2cnc3ccccc32)cc1OCc1ccccc1F [GSK1024306] and report
// result 14%

// query // repeat for `Clc1cc(Nc2ncnc3cc[nH]c23)ccc1OCc1ccccn1` and report
// result 15%

// query // repeat for `Cn1ccc2ncnc(Oc3ccc(NC(=O)Nc4cccnc4)c(Cl)c3)c21` and report
// result 16%

// query // repeat for CNc1nccc(-c2c(-c3ccc(F)cc3)ncn2CCCN2CCOCC2)n1 [SB-222516] and report
// result 0%

---
// query Would you mind telling me what %Inh value was observed for O=c1cc(N2CCOCC2)nc2n(Cc3cccc(Cl)c3)ccn12 [GSK2296823] ?
// result 2%

// query // repeat for `CN1c2ccc(-c3ccc(C(=O)NCCO)cc3)cc2-c2[nH]ncc2S1(=O)=O` and report
// result 46%

// query // repeat for COc1cc2ncnc(Nc3ccc(OCc4ccccc4Br)c(Cl)c3)c2cc1OC.Cl [GI261590] and report
// result 0%

// query // repeat for COc1ccc(Nc2nccc(N3CCC(NC(=O)Nc4ccc5c(c4)OCO5)C3)n2)cc1 (stereo not drawn) [GSK1379745] and report
// result 22%

// query // repeat for Fc1cccc(COc2ccc(Nc3ncnc4sc(-c5ccc[nH]5)cc34)cc2Cl)c1 [GW707818] and report
// result 0%

// query // repeat for COC(=O)c1cccc(NC(=O)NCCNc2ccnc(Nc3ccc(F)cc3)n2)c1 [GSK1379883] and report
// result 0%

// query // repeat for CS(=O)(=O)CCNCc1ccc(-c2ccc3ncnc(Nc4ccc(OCc5ccccc5)c(Cl)c4)c3c2)o1.Cl [GW574783] and report
// result 2%

// query // repeat for Nc1nc(-c2ccc3c(N)n[nH]c3c2)cc(N2CCC[C@@H](C(=O)Nc3ccccc3)C2)n1.O=C(O)C(F)(F)F.O=C(O)C(F)(F)F [GSK2288359] and report
// result 0%

// query // repeat for `COC(=O)c1c(-c2ccccc2)c2cc(Cl)ccc2c(=O)n1Cc1ccc(S(C)(=O)=O)cc1` and report
// result 23%

// query // repeat for Clc1ccc(-c2cc(-c3c[nH]nc3-c3ccccn3)ccn2)cc1 [GW681251] and report
// result 0%

// query // repeat for CCC(CC)(CC)n1cnc2c(N)ncnc21 [SKF-97620] and report
// result 0%

// query // repeat for Cc1ccc(C)c(NC(=O)NCCNc2ccnc(Nc3ccc(F)cc3)n2)c1 [GSK1379878] and report
// result 0%

* * *

# Tested on: PDPK1;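 also: kd values determined as follow-up on hits from a single-replicate KINOMEscan panel screen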
Recorded Endpoint: pKd
Reminder that pKd means the negative base-10 logarithm of the concentration expressed in mol/L.

// query Would you mind telling me what pKd value was observed for CC(C)(C)OC(=O)NC1CCCN(c2cc(-c3ccc4c(N)n[nH]c4c3)nc(N)n2)C1 (stereo not shown) [GSK2286096] ?
// result 7.43

Origin of values: paper PMC5540273
